Origin of measurements: paper PMC6221991

# test_details: Plasma exposure following oral administration in mice
# Type: in vivo, C57BL/6 mice
# assay_setup: C57BL/6, mouse, plasma, po, 40 mg.kg−1
property_label: concentration at 2 h (µM)
Field: numeric (µM). Do not append units.

Problem: Provide one value: measured concentration at 2 h of Cc1c(C)n(Cc2ccc(C(C)(C)C(=O)O)cc2)c2ccc(C(=O)N[C@@H](C)c3cccc(C4CC4)c3)cc12
Solution: 70
